System: SF-539 CNS
assay.remarks: NCI tumour cell line growth inhibition, 48 h
Give TGI for every item shown.

Examples with their reported TGI follow.
1) Cc1c2c(OCCCCN3CCN(c4ncccn4)CC3)nn(C)c(=O)c2c(C)n1-c1ccccc1 | 32.6 µM
2) Cc1ccc(NC(=O)Cn2c(Br)nc3c2c(=O)n(C)c(=O)n3C)cc1 | 4.21 µM

Would you be so kind as to report TGI for each listed record?
1. OCC1OC(n2cnc3c(/C=C(/O)c4ccccc4)ncnc32)C(O)C1O (stereo not given)
2. C/C(=N\NC(N)=S)c1nc2ccc(Cl)cc2[nH]1
3. Cc1ccc(-c2n[nH]c(=O)[nH]2)cc1[N+](=O)[O-]

**Result**
1: > 100 µM; 2: 9.7 µM; 3: > 100 µM

====

Test system: IGROV1 ovarian
assay.remarks: NCI tumour cell line growth inhibition, 48 h
Give TGI for every item shown.
One number for each entry, in µM.

1) Oc1ccccc1-c1nc2c3ccccc3c3ccccc3c2[nH]1 | 14.4

Continue with the next molecule.
**Query** Record request: TGI value, item C[C@]12CC[C@@H]3c4ccc(OC(=O)c5ccccc5)cc4CC[C@H]3[C@@H]1CC[C@@H]2Oc1c2ccccc2nc2ccccc12
**Result** 42.4

====

Test system: NCI-H460 lung
assay.remarks: NCI tumour cell line growth inhibition, 48 h
metric: TGI

Examples with their reported TGI follow.
1. c1ccc2c(Cc3nnc4sc(SSc5nn6c(Cc7c[nH]c8ccccc78)nnc6s5)nn34)c[nH]c2c1 | 89.3 µM
2. C1=CC=C2NCCOCCNC3=CC=CC=CC3=NCCOCCN=C2C=C1 | > 100 µM
3. Cc1sc2ccccc2[n+]1CCC(=O)O | > 100 µM
4. CC(=Nc1ccncc1)C(C)=Nc1ccncc1 | > 100 µM
5. Nc1nc(CCC(=O)Nc2cccc(C(F)(F)F)c2)cc(-c2ccc3ccccc3c2)n1 | > 100 µM

Would you be so kind as to report TGI for each listed record?
1. O=Cc1ccc(-c2cccs2)s1
2. CC(C)CNC(=O)Cn1c(-c2ccccc2)cc2ccccc21
3. Cc1ccc(SC(=O)N2C(=S)NC(=NC3CCCCC3)C23CCCCC3)cc1
4. O=c1[nH]c2cc3[nH]c4ncccc4c(=O)c3cc2[nH]1
5. CCN(CC)CCCC(C)Nc1c2ccc(C)cc2nc2ccc(OC)cc12 (centres undefined)
6. COc1cc(S(=O)(=O)Nc2ccc(-c3csc(N4C(=O)CSC4c4ccccc4)n3)cc2)ccc1Cl (centres undefined)
7. COc1ccc(CN2c3ccccc3CCc3ccccc32)cc1F

**Result**
1: > 92.4 µM; 2: > 100 µM; 3: > 100 µM; 4: > 10 µM; 5: 3.74 µM; 6: > 100 µM; 7: > 100 µM

Would you be so kind as to report TGI for each listed record?
1. COc1c2cc(C(C)(C)C)cc1Cc1cccc(c1O)Cc1cc(C(C)(C)C)cc(c1OC)Cc1cccc(c1O)Cc1cc(C(C)(C)C)cc(c1OC)Cc1cccc(c1O)C2
2. COc1ccc(OC)c2c1C1CCC(=O)N1CN2C(C)=O (centres undefined)

**Result**
> 100 µM
> 100 µM

====

Give TGI for every item shown.
Tested on: M14 melanoma
assay.remarks: NCI tumour cell line growth inhibition, 48 h

1) C[C-](O)O.O/C(=C\[C-](O)c1ccccc1)c1ccccc1.O/C(=C\[C-](O)c1ccccc1)c1ccccc1.[Nd+3] (stereo unspecified) | 33.8 µM

Would you be so kind as to report TGI for each listed record?
1. CCN(CC)c1ccc2c(c1)Nc1cc(=C(C#N)C#N)c3ccccc3c1=N2
2. CSC1=NS(=O)(=O)c2cc(C(=O)NN(C)C(=O)c3cc4c(cc3Cl)SC(SC)=NS4(=O)=O)c(Cl)cc2S1

**Result**
> 100 µM
> 10 µM

====

Tested on: SN12C renal
assay.remarks: NCI tumour cell line growth inhibition, 48 h; in the data active = GI50 below about 0.43 µM; inactive = the rest
Can you answer with just one of these options? active, inactive

**Query** Dear all, I need the recorded test outcome for CN(C)C(=O)O[C@@H]1CN[C@@H](C#Cc2cc3ncnc(Nc4ccc(OCc5cccc(F)c5)c(Cl)c4)c3s2)C1 , thank you.
**Result** inactive

**Query** Follow-up entry: CC(=O)Nc1ccc(S(=O)(=O)NNC(=O)c2cccnc2Nc2ccc(Cl)cc2)cc1
**Result** inactive

====

Give TGI for every item shown.
Test system: SF-539 CNS
assay.remarks: NCI tumour cell line growth inhibition, 48 h

Examples with their reported TGI follow.
1) CCOc1ccccc1NC(=O)CCc1nc(=S)[nH][nH]1 | > 100 µM
2) O=C1C(Br)=C(c2ccccc2)S(=O)c2ccccc21 (stereo unspecified) | 12.9 µM
3) COc1ccc(C(=O)N2c3ccccc3Sc3ccccc32)c(C(F)(F)F)c1 | 0.995 µM

Would you be so kind as to report TGI for each listed record?
1. c1nnc(NCNc2nncs2)s1
2. O=c1[nH]c2cc3[nH]c4ncccc4c(=O)c3cc2[nH]1

**Result**
["> 100 µM", "> 10 µM"]

**Query** Record request: TGI value, item Cc1c2ccc(N(C)c3ccnc(Nc4cccc(S(N)(=O)=O)c4)n3)cc2nn1C
**Result** > 20.4 µM

====

Test system: HOP-92 NSCLC
assay.remarks: NCI tumour cell line growth inhibition, 48 h
metric: TGI

1) C=CC[C@@]1(C(=O)OC)[C@H](Sc2ccccc2)C1(C)C | 76.4 µM

Would you be so kind as to report TGI for each listed record?
1. Oc1ccc(CCc2cc(O)cc(O)c2)cc1
2. [N-]=[N+]=Nc1ccc(CNc2cc(=O)[nH]c(=O)[nH]2)cc1
3. Cc1c(NC2(C)C(=O)N(/N=C/c3ccccc3)N=C2c2ccccc2)n[nH]c1-c1ccccc1 (configuration not stated)
4. COc1cc2c(cc1OC)-c1c3c(cc4c1[C@@H](C2)N(C)CC4)OCO3
5. c1ccc2c(Cc3nnc4sc(SSc5nn6c(Cc7c[nH]c8ccccc78)nnc6s5)nn34)c[nH]c2c1

**Result**
1: > 100 µM; 2: > 100 µM; 3: > 100 µM; 4: 32.4 µM; 5: > 100 µM

Would you be so kind as to report TGI for each listed record?
1. COC(=O)c1c(-c2ccccc2)sc(-c2cccc3ccccc23)c1C(=O)OC
2. CN(C)C(=O)O[C@@H]1CN[C@@H](C#Cc2cc3ncnc(Nc4ccc(OCc5cccc(F)c5)c(Cl)c4)c3s2)C1
3. NNC(=S)N1CCN(C(=S)NN)CC1
4. O=c1[nH]c(=O)n(C2OC3COC2C3O)cc1F (configuration not stated)
5. Cc1ccc(SC(=O)N2C(=S)NC(=NC3CCCCC3)C23CCCCC3)cc1

**Result**
1: > 100 µM; 2: > 25 µM; 3: > 100 µM; 4: > 100 µM; 5: > 100 µM

Would you be so kind as to report TGI for each listed record?
1. C[N+](C)(C)c1ncnc2c1ncn2C1CCCCO1 (configuration not stated)
2. O=C(OC[C@H]1O[C@@H](OC(=O)c2cc(O)c(O)c(O)c2)[C@H](OC(=O)c2cc(O)c(O)c(O)c2)[C@@H](OC(=O)c2cc(O)c(O)c(O)c2)[C@@H]1OC(=O)c1cc(O)c(O)c(O)c1)c1cc(O)c(O)c(O)c1
3. CC1(COS(=O)(=O)OCC2(C)COS(=O)(=O)OC2)COS(=O)(=O)OC1
4. Nc1cc(N2CCCC2)nc(=O)n1Cc1ccccc1
5. c1ccc2c(c1)nc1n2CCSC1
6. O=C1/C(=C2\Sc3c(ccc(Cl)c3Cl)C2=O)Sc2c1ccc(Cl)c2Cl
7. CN=C1SC(=Nc2ccc(N(C)C)cc2)N1C

**Result**
["> 100 µM", "37.4 µM", "> 63.8 µM", "> 100 µM", "> 100 µM", "> 100 µM", "53.5 µM"]

====

Tested on: SK-MEL-2 melanoma
assay.remarks: NCI tumour cell line growth inhibition, 48 h
metric: TGI

Examples with their reported TGI follow.
1. COC(=O)[C@@]12CCCC(=O)[C@@H]1[C@H]1CCCC[C@H]12 | > 100 µM
2. COc1cc(S(=O)(=O)Nc2ccc(C3=NNC(c4ccccc4)C3)cc2)ccc1F (stereo unspecified) | > 100 µM
3. COc1ccc(OC)c2c1C1CCC(=O)N1CN2C(C)=O (stereo unspecified) | > 100 µM
4. [N-]=[N+]=Nc1ccc(CNc2cc(=O)[nH]c(=O)[nH]2)cc1 | > 100 µM

Would you be so kind as to report TGI for each listed record?
1. Cc1cc(N/N=C/c2nc(-c3ccc(Cl)cc3)oc2C)c2cc(Cl)ccc2n1
2. Cc1cc(=O)oc2cc(O)c(CN(C)CC(=O)O)cc12
3. CCOC(=O)COS(=O)(=O)C(F)(F)F

**Result**
1: 31.8 µM; 2: > 100 µM; 3: > 100 µM

Would you be so kind as to report TGI for each listed record?
1. c1cc(CNC2C3CCC(C3)C2c2c[nH]c3ccccc23)cc(CNC2C3CCC(C3)C2c2c[nH]c3ccccc23)c1 (stereo unspecified)
2. S=C(S)NCC1CCC(CNC(=S)S)CC1 (stereo unspecified)
3. BrC1(Br)C2/C=C\CCCCC21 (stereo unspecified)
4. CCOC(=O)C(/C=N\C(=S)Nc1ccc(OCC)cc1)=C(/O)c1ccccc1

**Result**
3.11 µM
58.3 µM
> 100 µM
> 100 µM

Where do the numbers come from? From PubChem BioAssay (NCI).
